- Tested on: Cryptococcus neoformans
- reported-conditions: Concentration 20 uM; ASSAY_TEST Inhibition of Fungal Growth; detection method Resazurin; Absorption (OD600-OD570); plate type 384well; NBS; CORNING #3640
- Description: Antifungal activity against Cryptococcus neoformans H99 ATCC 208821 (CO-ADD:FG_002); MIC in YNB media using NBS plates, by Resazurin OD(600-570)
Potency and affinity values are given separately.
measured-parameter: Inhibition (%)
Quick reminder: number only, in %, skip the unit.

Item under review: Cn1c(=O)c2c(ncn2CCOC(=O)C(C)(C)Oc2ccc(Cl)cc2)n(C)c1=O [THEOFIBRATE] . Reported Inhibition?
-5.77

Item under review: Cc1ccc(NC(=O)Nc2cccnc2)cc1NC(=O)Nc1cccnc1 . Reported Inhibition?
-10.14

Item under review: Cc1c(NC(=O)Nc2c(Cl)cccc2Cl)c(=O)n(-c2ccccc2)n1C . Reported Inhibition?
-0.01

Item under review: Cc1ccc(C#CC(C)(O)C(C)(C)C)cn1 (stereo unspecified) . Reported Inhibition?
-1.46

Item under review: O=c1c(O)cccc2cc(O)c(O)c(O)c12 [PURPUROGALLIN] . Reported Inhibition?
-25.98

Item under review: CSc1cccc(NC(=O)Nc2nc3c(C)cccc3s2)c1 . Reported Inhibition?
-2.59
